TESTED SYSTEM: T1, CEACAM1 (Sino Biological) (human, UniProt P13688 35-428, limits assumed)
T1 construct: may be the same as CEACAM1-HIS; also called hCEACAM1; biotinylated soluble CEACAM1
T1 sequence: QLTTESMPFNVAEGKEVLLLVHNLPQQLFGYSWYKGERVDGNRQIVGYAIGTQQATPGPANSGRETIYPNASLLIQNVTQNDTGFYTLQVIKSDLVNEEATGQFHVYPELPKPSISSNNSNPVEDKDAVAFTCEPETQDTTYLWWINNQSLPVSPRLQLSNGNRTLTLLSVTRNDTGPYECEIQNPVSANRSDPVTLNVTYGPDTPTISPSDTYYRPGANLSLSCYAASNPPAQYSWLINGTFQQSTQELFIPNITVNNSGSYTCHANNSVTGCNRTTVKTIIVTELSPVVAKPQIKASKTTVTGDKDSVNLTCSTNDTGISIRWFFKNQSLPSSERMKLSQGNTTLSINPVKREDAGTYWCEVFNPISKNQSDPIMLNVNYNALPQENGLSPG
PROTOCOL TEXT: SPR multi-cycle, IgG on Protein A
TEST READOUT: relative KD to Parent

Prompt: For the binder He9/L3 (antibody, IgG4, V domains shown, IgG4 S241P, kappa; also called He9 / 3) VH: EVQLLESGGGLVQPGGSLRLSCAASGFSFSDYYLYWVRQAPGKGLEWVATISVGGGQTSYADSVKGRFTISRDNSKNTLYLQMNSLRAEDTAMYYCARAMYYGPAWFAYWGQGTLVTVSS VL: DIVMTQSPDSLAVSLGERATINCKSSQSLLNSANQKNYLAWYQQKPGQPPKLLIYFASTRESGVPDRFSGSGSGTDFTLTISSLQAEDVAVYYCQSHFPFPFTFGGGTKVEIK , what relative KD to Parent is on record?
Completion: 4.15 ratio

Prompt: For the binder He9/L6 (antibody, IgG4, V domains shown, IgG4 S241P, kappa; also called He9 / 6) VH: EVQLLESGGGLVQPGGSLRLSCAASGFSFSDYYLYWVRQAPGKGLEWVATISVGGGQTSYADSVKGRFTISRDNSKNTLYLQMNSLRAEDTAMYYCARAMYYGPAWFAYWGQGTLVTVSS VL: DIVMTQSPDSLAVSLGERATINCKSSQSLLNSANQKNYLAWYQQKPGQPPKLLIYFASTRESGVPDRFSGSGSGTDFTLTISSLQAEDVAVYYCQSHYPFSFTFGGGTKVEIK , what relative KD to Parent is on record?
Completion: 4.82 ratio

Prompt: For the binder Parent VH/L4#2 (antibody, IgG4, V domains shown, IgG4 S241P, kappa; also called VHp/L4 #2; VH2 N56Q / 4#2) VH: EVQLLESGGGLVQPGGSLRLSCAASGFSFSDYYLYWVRQAPGKGLEWVATISVGGGQTSYADSVKGRFTISRDNSKNTLYLQMNSLRAEDTAMYYCTRGLYYGPAWFAYWGQGTLVTVSS VL: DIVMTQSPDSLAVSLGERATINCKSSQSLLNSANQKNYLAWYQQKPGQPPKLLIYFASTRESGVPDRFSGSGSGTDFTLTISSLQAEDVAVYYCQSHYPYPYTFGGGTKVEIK , what relative KD to Parent is on record?
Completion: 1.3 ratio
